# Assay System: HLA-A*01:01
# Procedure Details: IEDB peptide-MHC binding, purified MHC/competitive/radioactivity; filed as Kd, often an IC50 or EC50 that approximates it; bounds were set here for any values at or beyond the usual limits of such assays
# Condition Summary: source organism: Dengue virus 1 Brazil/97-11/1997
Value Kind: Kd (nM)
// return numeric value only (unit: nM, not printed)

Lookup: What value of Kd on HLA-A*01:01 does WTEAKMLLD have?
Found: 943

----------
# Assay System: HLA-B*44:02
# Procedure Details: IEDB peptide-MHC binding, purified MHC/competitive/radioactivity; filed as Kd, often an IC50 or EC50 that approximates it; bounds were set here for any values at or beyond the usual limits of such assays
# Condition Summary: source organism: Dengue virus 1 Brazil/97-11/1997
Value Kind: pKd
The scale used: pKd is minus the common logarithm of the concentration in molar units.

ADSGCVINW: 7.15
NEGIMAIGI: 7.73
NESDPEGALW: 7.58

Lookup: Tell me the measured pKd of AERVLDWLEK , please.
Found: 5.49

Lookup: Tell me the measured pKd of MEHKYSWKSW , please.
Found: 7.95
